target: glucocorticoid receptor (estrogen-primed rabbit thymus) (Oryctolagus cuniculus, UniProt P59667); construct: preparation of cytosols for the progesterone and glucocorticoid receptor assays; from tissue; host or cells: thymus of estradiol-primed immature female New Zealand White rabbits (cytosol); test: Relative binding affinity, glucocorticoid receptor; conditions: Table 2; estrogen-primed rabbit thymus; dexamethasone = 100%
Sequence (P59667 whole entry): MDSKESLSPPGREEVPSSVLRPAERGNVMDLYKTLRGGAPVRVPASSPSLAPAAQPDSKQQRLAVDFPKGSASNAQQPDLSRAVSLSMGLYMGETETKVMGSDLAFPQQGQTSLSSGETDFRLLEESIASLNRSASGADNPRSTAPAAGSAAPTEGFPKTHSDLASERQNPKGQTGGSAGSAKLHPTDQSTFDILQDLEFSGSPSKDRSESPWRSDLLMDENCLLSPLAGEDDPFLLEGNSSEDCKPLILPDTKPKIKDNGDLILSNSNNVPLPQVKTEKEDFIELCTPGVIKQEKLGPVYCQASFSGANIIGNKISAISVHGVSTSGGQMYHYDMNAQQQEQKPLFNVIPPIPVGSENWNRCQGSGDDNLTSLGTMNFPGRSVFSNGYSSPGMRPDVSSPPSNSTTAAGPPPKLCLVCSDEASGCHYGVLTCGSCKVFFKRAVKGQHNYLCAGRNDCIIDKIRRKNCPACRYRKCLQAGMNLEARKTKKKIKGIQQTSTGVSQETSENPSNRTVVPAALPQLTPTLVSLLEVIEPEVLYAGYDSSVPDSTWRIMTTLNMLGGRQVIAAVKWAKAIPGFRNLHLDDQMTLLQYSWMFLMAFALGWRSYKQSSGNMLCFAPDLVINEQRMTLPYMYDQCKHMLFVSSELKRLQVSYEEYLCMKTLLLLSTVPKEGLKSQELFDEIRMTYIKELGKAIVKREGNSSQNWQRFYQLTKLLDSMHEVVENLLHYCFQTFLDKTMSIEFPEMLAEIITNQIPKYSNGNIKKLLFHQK
Listing of entries alongside the reported BINDING AFFINITY Glucocortic.

{"columns": ["compound", "units.text", "BINDING AFFINITY Glucocortic"],
 "data": [
  ["CN(C)c1ccc([C@H]2C[C@@]3(C)[C@@H](CC[C@]3(OC=O)C(=O)COC=O)[C@@H]3CCC4=CC(=O)CCC4=C32)cc1 [Compound 139]", "%", 79],
  ["CC(=O)O[C@]1(C(C)=O)CC[C@H]2[C@@H]3CCC4=CC(=O)CCC4=C3[C@@H](c3ccc(N(C)C)cc3)C[C@@]21C [Compound 69B, reference compound]", "%", 114],
  ["CCCCCCC(=O)O[C@]1(C(C)=O)CC[C@H]2[C@@H]3CCC4=CC(=O)CCC4=C3[C@@H](c3ccc(N(C)C)cc3)C[C@@]21C [Compound 69D]", "%", 89],
  ["COC1(C(C)=O)CCC2C3CCC4=CC(=O)CCC4=C3C(c3ccc(N(C)C)cc3)CC21C (centres unmarked) [Compound 97a]", "%", 52],
  ["COCC(=O)OCC(=O)[C@@]1(OC(C)=O)CC[C@H]2[C@@H]3CCC4=CC(=O)CCC4=C3[C@@H](c3ccc(N(C)C)cc3)C[C@@]21C [Compound 126b]", "%", 15]
]}

###

test system: progesterone-induced endometrial proliferation; assay: AntiClauberg test; type: in vivo, rabbit; conditions: Table 2; oral; CDB-2914 = 100 (assigned)

{"columns": ["compound", "BIOLOGICAL ACTIVITY antiClauberg"],
 "data": [
  ["COC1(C(C)=O)CCC2C3CCC4=CC(=O)CCC4=C3C(c3ccc(N4CCCCC4)cc3)CC21C (stereo not drawn) [Compound 97b]", 99],
  ["CCC(=O)OC1(C(C)=O)CCC2C3CCC4=CC(=O)CCC4=C3C(c3ccc(N(C)C)cc3)CC21C (stereo not drawn) [Compound 69C]", "˜10"],
  ["COCC(=O)C1(OC(C)=O)CCC2C3CCC4=CC(=O)CCC4=C3C(c3ccc(N4CCCCC4)cc3)CC21C (stereo not drawn) [Compound 123a]", "45-83"],
  ["CC(=O)C1(OC=O)CCC2C3CCC4=CC(=O)CCC4=C3C(c3ccc(N(C)C)cc3)CC21C (stereo not drawn) [Compound 69A]", 97],
  ["CC(=O)O[C@]1(C(C)=O)CC[C@H]2[C@@H]3CCC4=CC(=O)CCC4=C3[C@@H](c3ccc(N4CCCC4)cc3)C[C@@]21C", "˜25"]
]}
